Classification scheme (logP): lo (below 0.8), mid (0.8 to below 2), hi (2 or more)

Quick check: band for `COc1ccc(C=[N+]([O-])c2ccccc2)cc1`
mid

Quick check: band for `CCc1c(C(=O)O)c(=O)cnn1-c1ccc(Cl)cc1`
lo

Quick check: band for `Clc1cccc(O[Si]23OCCN(CCO2)CCO3)c1`
lo

Quick check: band for CC1(CCl)C2CC(Cl)(Cl)C1(C(Cl)Cl)CC2(Cl)Cl (stereo not drawn)
hi

Quick check: band for `Brc1cccc(Oc2ccc(Br)c(Br)c2Br)c1`
hi

Quick check: band for CCC(C(=O)Oc1ccccc1)C(C)C (stereo not drawn)
hi

Quick check: band for CCn1cc(C(=O)O)c(=O)c2cc(F)c(N3CCNC(C)C3)cc21 (stereo not drawn)
lo

Quick check: band for `COCCn1cnc2[nH]c(=O)n(C)c(=N)c21`
lo

Quick check: band for `Nc1cnn(-c2ccccc2)c(=O)c1Cl`
mid

Quick check: band for `CC(=O)Oc1ccc(NC(=O)C(Cl)Cl)cc1`
mid

Quick check: band for COc1ccccc1OCC(O)CO (stereo not drawn)
mid

Quick check: band for `N#CCCN(N)c1nc2cc(Cl)ccc2o1`
mid

Quick check: band for `Clc1ccc2c(ccc3ccccc32)c1`
hi

Quick check: band for `COC(=O)[C@@H](N)Cc1ccc(O)cc1`
lo

Quick check: band for `CC(=O)OCN1C(=O)NC(c2ccccc2)(c2ccccc2)C1=O`
hi

Quick check: band for `Cc1cc(Cl)c(Cl)cc1Cc1ccc(Cl)cc1Cl`
hi

Quick check: band for `CC(C)COCCO`
lo

Quick check: band for `CCN(CC)P(=O)(N(CC)CC)N1CCCC1`
hi

---

Give logP for every item shown.
Lab note: jot down the number only; don't add units.

Any idea what its logP is? The compound is `c1ccc2cc3c4ccccc4c4ccccc4c3cc2c1`
6.41

Any idea what its logP is? The compound is `COCCn1cnc2c(=N)n(C)c(=O)[nH]c21`
-0.96

Any idea what its logP is? The compound is `Brc1ccc(-c2ccccc2)cc1`
4.96

Any idea what its logP is? The compound is `N#CCCCCCCCCC#N`
1.75

Any idea what its logP is? The compound is `CC(C)(C)C(=O)OCn1ncc2c(O)ncnc21`
1.07

Any idea what its logP is? The compound is `OC[C@@H]1C[C@H](F)[C@H](n2cnc3cncnc32)O1`
-0.4

Any idea what its logP is? The compound is COc1ccc(C(C)NCCC(c2ccccc2)c2ccccc2)cc1OC (configuration not stated)
5.8

Any idea what its logP is? The compound is `Cc1ccc2c(ccc3ccccc32)c1`
4.86

Any idea what its logP is? The compound is `CC(C)(C)[N+]([O-])=Cc1ccc(F)cc1`
1.42

Any idea what its logP is? The compound is `COc1c2occc2cc2ccc(=O)oc12`
2

Any idea what its logP is? The compound is `c1ccc2cc3cc4c(ccc5ccccc54)cc3cc2c1`
6.81

Any idea what its logP is? The compound is CCCCCNC(=O)CCC(NS(=O)(=O)c1ccccc1)C(=O)O (configuration not stated)
0.03

Any idea what its logP is? The compound is `Cc1ccc(C(=O)CS(=O)(=O)c2ccc(C)cc2)cc1`
3.3

Any idea what its logP is? The compound is ClC1=C(Cl)C2(Cl)C3C(Cl)C(Cl)(Cl)CC3C1(Cl)C2(Cl)Cl (configuration not stated)
6.2

Any idea what its logP is? The compound is `CCCCCCCCCCOC(=O)c1ccccc1C(=O)OCCCCCCCCCC`
9.05

Any idea what its logP is? The compound is `CN(C)C(=O)n1nc(C(C)(C)C)nc1SCC(=O)O`
1.62

Any idea what its logP is? The compound is `NS(=O)(=O)c1cc2c(cc1Cl)N=C(CSCc1ccccc1)NS2(=O)=O`
1.73

Any idea what its logP is? The compound is `CCCCN=C=S`
2.92

Any idea what its logP is? The compound is CC(C)(C)NCC(O)c1cc(O)cc(O)c1 (configuration not stated)
0.9

Any idea what its logP is? The compound is `CCCCCCOc1ccc(N)cc1`
3.64

Any idea what its logP is? The compound is `O=[N+]([O-])c1ccc2c(c1)NCC2`
1.92

Any idea what its logP is? The compound is `O=C(O)c1ccc(-c2ccccc2)cc1`
3.75

Any idea what its logP is? The compound is `CCOCCOCCO`
-0.54

Any idea what its logP is? The compound is `Cc1ccc(S(=O)(=O)CC(=O)c2ccc(Cl)cc2)cc1`
3.43

Any idea what its logP is? The compound is CCOC(=O)C1=C(COCCN)NC(C)=C(C(=O)OC)C1c1ccccc1Cl (configuration not stated)
3

Any idea what its logP is? The compound is `CCCCCCCCC(=O)OC`
4.32

Any idea what its logP is? The compound is COc1ncnc2c1ncn2C1OC(COC(=O)C(C)(C)C)C(O)C1OC(=O)C(C)(C)C (configuration not stated)
3.4

Any idea what its logP is? The compound is `Nc1nc(=O)n([C@H]2CC[C@@H](CO)O2)cc1F`
-1.09

Any idea what its logP is? The compound is `CCOC(=O)c1ccccc1O`
2.95

Any idea what its logP is? The compound is Oc1ccc(C2CNCCc3c2cc(O)c(O)c3Cl)cc1 (configuration not stated)
2.39

Any idea what its logP is? The compound is CN1C(=O)CCC1(O)c1cccnc1 (configuration not stated)
-0.57

Any idea what its logP is? The compound is `Cc1ccc(C)c2c(C)cccc12`
4.9

Any idea what its logP is? The compound is `CCCCCCCCNC(=O)n1cc(F)c(=O)[nH]c1=O`
3.9

Any idea what its logP is? The compound is `N[C@@H](Cc1ccc(O)c(O)c1)C(=O)OC1CCCCC1`
1.79

Any idea what its logP is? The compound is COC(=O)C(C)=CC1C(C(=O)OC)C1(C)C (configuration not stated)
2.67

Any idea what its logP is? The compound is `Oc1ccc(Cl)cc1Cc1ccccc1`
3.6

Any idea what its logP is? The compound is `CC(=O)CCC(C)C`
1.88

Any idea what its logP is? The compound is CC(=O)c1ccc2cc(C(C)C(=O)OCC(=O)N(C)C)ccc2c1 (configuration not stated)
2.05

Any idea what its logP is? The compound is `CC(=O)Nc1nc(=O)c2ncn(COCCOC(C)=O)c2[nH]1`
-0.85

Any idea what its logP is? The compound is `CCCC(=O)OCN1C(=O)NC(c2ccccc2)(c2ccccc2)C1=O`
3.34

Any idea what its logP is? The compound is `NS(=O)(=O)c1cc2cc(CN3CCOCC3)sc2o1`
0.88

Any idea what its logP is? The compound is `CCCCn1ccc(=O)c(O)c1`
0.72

Any idea what its logP is? The compound is COc1cc(S(C)=O)ccc1-c1cn2cccnc2n1 (configuration not stated)
0.63

Any idea what its logP is? The compound is `C=CC(=O)NCCCN1CCSCC1`
0.54

Any idea what its logP is? The compound is `COc1ccc(C(=O)CS(=O)(=O)c2ccccc2)cc1`
2.18

Any idea what its logP is? The compound is `Clc1ccc(Nc2cc3nc4ccccc4n(-c4ccc(Cl)cc4)c-3cc2=NCCCN2CCCC2)cc1`
7.17

Any idea what its logP is? The compound is `C[C@H](CCC(=O)NCC(=O)O)[C@H]1CC[C@H]2[C@@H]3[C@H](O)C[C@@H]4C[C@H](O)CC[C@]4(C)[C@H]3C[C@H](O)[C@]12C`
1.65

---

Give logP for every item shown.
Lab note: jot down the number only; don't add units.

Any idea what its logP is? The compound is `Cc1ccc(C)c(C)n1`
2.05

Any idea what its logP is? The compound is `O=C(NCc1ccc(O)cc1)C(=O)c1c[nH]c2ccc([N+](=O)[O-])cc12`
2.67

Any idea what its logP is? The compound is `COC(=O)c1ccc(Cl)cc1`
2.87

Any idea what its logP is? The compound is CC(C)(C)[C@@H](O)[C@@H](Cc1ccc(Cl)cc1)n1cncn1 (single isomer, unassigned)
3.2

Any idea what its logP is? The compound is `NS(=O)(=O)c1nn2c(=Nc3ccc(O)cc3)snc2s1`
1.89

Any idea what its logP is? The compound is CCOC(=O)C1=C(C)NC(C)=C(C(=O)OC)C1c1cccc([N+](=O)[O-])c1 (configuration not stated)
2.88

Any idea what its logP is? The compound is `[O-][n+]1ccc(Cl)c2ccc(Cl)cc21`
1.85
